protocol_description: duplex melting temperature (HRM, EvaGreen); higher = more stable duplex
condition: duplex concentration 10 µM; backbone: PS-PS (both strands fully phosphorothioate)
property_name: duplex melting temperature (°C)
Just the number in °C, nothing appended.

Consider the reported duplex melting temperature for these sequences:
1) CCCAGGCCTCGGATTTA
63.5
2) CTTTTGTGCGGGTAGC
57.2
3) TTCGCGGTCTCCATTA
60.6
4) AATGTCGAACAGCAATT
55
5) GCTGAACTAACCACCA
54.6

For the next question, use this sequence.
Exam item: // duplex melting temperature lookup, key: `AATGAGGAGTGAAATGG`
Marked response: 52.4

These entries and their values trace back to the supplement of paper PMC9116672.
